biological target: human CD28 (human, UniProt P10747 19-220); experiment: flow cytometry, Jurkat cells (CD28)
readout.name: MFI at 33.3 nM (MFI)

Example entries and their recorded answers appear below.
Query :: For CD80 IgV-Fc T13R/Q27L/Q33L/E35D/T41S/M47V/N48K/V68M/L85M (Fc fusion, not shown: a dimerising Fc or GST) VIHVTKEVKEVARLSCGHNVSVEELALTRIYWLKDKKMVLSMMSGDVKIWPEYKNRTIFDITNNLSIMILALRPSDEGTYECVVMKYEKDAFKREHLAEVTLSVKAD , what is its reported MFI at 33.3 nM?
Result :: 14.6

Query :: Another: CD80 IgV-Fc T13R/Q33R/E35D/M47L/V68M (Fc fusion, not shown: a dimerising Fc or GST) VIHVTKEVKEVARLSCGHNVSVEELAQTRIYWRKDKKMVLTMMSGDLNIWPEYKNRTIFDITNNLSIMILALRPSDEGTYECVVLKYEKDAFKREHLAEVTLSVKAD
Result :: 14.1

Query :: Another binder: CD80 IgV-Fc V22D/E24D/E35D/M47V/V68M (Fc fusion, not shown: a dimerising Fc or GST) VIHVTKEVKEVATLSCGHNVSDEDLAQTRIYWQKDKKMVLTMMSGDVNIWPEYKNRTIFDITNNLSIMILALRPSDEGTYECVVLKYEKDAFKREHLAEVTLSVKAD
Result :: 191

Query :: Another binder: CD80 IgV-Fc T13R/Q33R/E35D/M38I/M47L/V68M/E95V/L97Q (Fc fusion, not shown: a dimerising Fc or GST) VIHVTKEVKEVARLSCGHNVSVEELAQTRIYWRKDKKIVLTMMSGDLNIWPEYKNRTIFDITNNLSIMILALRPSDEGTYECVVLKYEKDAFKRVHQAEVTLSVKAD
Result :: 1110

Query :: Same question, CD80 IgV-Fc T13R/Q33R/E35D/M38I/M47L/V68M/L85M/R94Q (Fc fusion, not shown: a dimerising Fc or GST) VIHVTKEVKEVARLSCGHNVSVEELAQTRIYWRKDKKIVLTMMSGDLNIWPEYKNRTIFDITNNLSIMILALRPSDEGTYECVVMKYEKDAFKQEHLAEVTLSVKAD this time
Result :: 15.2

1: CD80 IgV-Fc S21P/E35D/K37E/D46E/M47I/V68M (Fc fusion, not shown: a dimerising Fc or GST) VIHVTKEVKEVATLSCGHNVPVEELAQTRIYWQKDKEMVLTMMSGEINIWPEYKNRTIFDITNNLSIMILALRPSDEGTYECVVLKYEKDAFKREHLAEVTLSVKAD
2: CD80 IgV-Fc T13R/E35D/M47L/V68M (Fc fusion, not shown: a dimerising Fc or GST) VIHVTKEVKEVARLSCGHNVSVEELAQTRIYWQKDKKMVLTMMSGDLNIWPEYKNRTIFDITNNLSIMILALRPSDEGTYECVVLKYEKDAFKREHLAEVTLSVKAD
Query :: Consider entries 1 and 2 . Which has the numerically lower MFI at 33.3 nM? Please indicate the selected item by its label.
Result :: 2
(2: 15.6 MFI, 1: 540 MFI)

A: CD80 IgV-Fc V22D/E24D/E35D/M47L/V68M (Fc fusion, not shown: a dimerising Fc or GST) VIHVTKEVKEVATLSCGHNVSDEDLAQTRIYWQKDKKMVLTMMSGDLNIWPEYKNRTIFDITNNLSIMILALRPSDEGTYECVVLKYEKDAFKREHLAEVTLSVKAD
B: CD80 IgV-Fc T13R/Q33R/E35D/M47L/V68M/L85M (Fc fusion, not shown: a dimerising Fc or GST) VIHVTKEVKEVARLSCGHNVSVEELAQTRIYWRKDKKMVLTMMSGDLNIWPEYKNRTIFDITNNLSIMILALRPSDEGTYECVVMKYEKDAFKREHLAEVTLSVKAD
C: CD80 IgV-Fc T13R/Q33L/E35D/M47L/V68M/L85M (Fc fusion, not shown: a dimerising Fc or GST) VIHVTKEVKEVARLSCGHNVSVEELAQTRIYWLKDKKMVLTMMSGDLNIWPEYKNRTIFDITNNLSIMILALRPSDEGTYECVVMKYEKDAFKREHLAEVTLSVKAD
Query :: Hey, quick one: sort these by MFI at 33.3 nM, low to high? To answer, write out the labels according to the requested order.
Result :: C, B, A
